# Assayed System: CXCR4 receptor (Homo sapiens, UniProt P61073)
# Construct: 50 μL of Jurkat human T-cell leukemia cells (6×10^6 cells/mL) suspended in buffer; endogenous in cells; host or cells: Jurkat human T-cell leukemia cells
# Sequence (P61073 whole entry): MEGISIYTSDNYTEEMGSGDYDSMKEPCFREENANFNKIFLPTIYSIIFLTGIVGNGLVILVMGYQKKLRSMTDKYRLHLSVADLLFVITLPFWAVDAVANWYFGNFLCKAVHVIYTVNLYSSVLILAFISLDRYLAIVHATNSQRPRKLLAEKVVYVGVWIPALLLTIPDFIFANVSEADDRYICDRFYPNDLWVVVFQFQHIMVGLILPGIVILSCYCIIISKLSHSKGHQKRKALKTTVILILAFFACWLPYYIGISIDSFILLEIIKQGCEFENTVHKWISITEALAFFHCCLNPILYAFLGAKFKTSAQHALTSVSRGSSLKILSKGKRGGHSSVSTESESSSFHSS
# Protocol Text: Inhibition of 125I-CXCL12 binding to CXCR4 receptor on Jurkat cells
# Test Parameters: Table 1, 125I-CXCL12, 1 hour at room temperature, compounds as acetate salt, read-out: IC50 (nM), inhibitory activity against CXCL12 binding to CXCR4 receptor
Bridge positions count the residues as written; N and C are the ends. Square brackets hold non-standard residues; d marks the D form. Peptide text beside a SMILES is read from it. * marks the point of attachment. Pentanoyl(5-guanidino) = NC(N)=NCCCCC(=O)*; 2Nal = N[C@@H](Cc1ccc2ccccc2c1)C(=O)O; Cit = NC(=O)NCCC[C@H](N)C(=O)O
Outcome Measure: IC50 (nM)
Express your answer in nM, writing the number without its unit.

Task item: Look up IC50 for this compound: N=C(N)NCCCCC(=O)N[C@@H](CCCNC(=N)N)C(=O)N[C@@H](Cc1ccc2ccccc2c1)C(=O)N[C@H]1CSSC[C@@H](C(=O)N[C@@H](CCCNC(=N)N)C(N)=O)NC(=O)[C@H](CCCNC(N)=O)NC(=O)[C@H](CCCNC(=N)N)NC(=O)[C@H](Cc2ccc(O)cc2)NC(=O)[C@@H]2CCCN2C(=O)[C@@H](CCC(=O)O)NC(=O)[C@H](CCCCN)NC(=O)[C@H](CCCNC(N)=O)NC(=O)[C@H](Cc2ccc(O)cc2)NC1=O [TF8] ({Pentanoyl(5-guanidino)}-R[2Nal]CY[Cit]K[dE]PYR[Cit]CR-NH2; disulfide 3-12)
Reply: 8.2

* * *

# Assayed System: CXCR4 receptor (Homo sapiens, UniProt P61073)
# Construct: 50 μL of Jurkat human T-cell leukemia cells (6×10^6 cells/mL) suspended in buffer; endogenous in cells; host or cells: Jurkat human T-cell leukemia cells
# Protocol Text: Inhibition of 125I-CXCL12 binding to CXCR4 receptor on Jurkat cells
# Test Parameters: Table 1, 125I-CXCL12, 1 hour at room temperature, compounds as acetate salt, read-out: IC50 (nM), inhibitory activity against CXCL12 binding to CXCR4 receptor
Bridge positions count the residues as written; N and C are the ends. Square brackets hold non-standard residues; d marks the D form. Peptide text beside a SMILES is read from it. * marks the point of attachment. 2Nal = N[C@@H](Cc1ccc2ccccc2c1)C(=O)O; Cit = NC(=O)NCCC[C@H](N)C(=O)O; X5 = O=C(c1ccccc1F)*
Outcome Measure: IC50 (nM)
Give the value in nM but do not write nM after it.

Task item: Suppose we examine the molecule N=C(N)NCCC[C@H](NC(=O)[C@@H]1CSSC[C@H](NC(=O)[C@H](Cc2ccc3ccccc3c2)NC(=O)[C@H](CCC(=O)O)NC(=O)[C@@H](N)CCCNC(=N)N)C(=O)N[C@@H](Cc2ccc(O)cc2)C(=O)N[C@@H](CCCNC(=N)N)C(=O)N[C@@H](CCCCN)C(=O)N[C@H](CCCCN)C(=O)N2CCC[C@H]2C(=O)N[C@@H](Cc2ccc(O)cc2)C(=O)N[C@@H](CCCNC(=N)N)C(=O)N[C@@H](CCCNC(N)=O)C(=O)N1)C(=O)O [TE14002] (H-RE[2Nal]CYRK[dK]PYR[Cit]CR-OH; disulfide 4-13) ; what IC50 value has been reported?
Reply: 680

Task item: Item N=C(N)NCCC[C@H](NC(=O)[C@@H]1CSSC[C@H](NC(=O)[C@H](Cc2ccc3ccccc3c2)NC(=O)[C@H](CCCNC(=N)N)NC(=O)[C@H](CCCNC(=N)N)NC(=O)c2ccccc2F)C(=O)N[C@@H](Cc2ccc(O)cc2)C(=O)N[C@@H](CCCNC(N)=O)C(=O)N[C@@H](CCCCN)C(=O)N[C@H](CCC(=O)O)C(=O)N2CCC[C@H]2C(=O)N[C@@H](Cc2ccc(O)cc2)C(=O)N[C@@H](CCCNC(=N)N)C(=O)N[C@@H](CCCNC(N)=O)C(=O)N1)C(N)=O [TF6] (X5-RR[2Nal]CY[Cit]K[dE]PYR[Cit]CR-NH2; disulfide 4-13) has what recorded IC50?
Reply: 3.9

* * *

# Assayed System: CXCR4 receptor (Homo sapiens, UniProt P61073)
# Construct: 50 μL of Jurkat human T-cell leukemia cells (6×10^6 cells/mL) suspended in buffer; endogenous in cells; host or cells: Jurkat human T-cell leukemia cells
# Protocol Text: Inhibition of 125I-CXCL12 binding to CXCR4 receptor on Jurkat cells
# Test Parameters: Table 1, 125I-CXCL12, 1 hour at room temperature, compounds as acetate salt, read-out: IC50 (nM), inhibitory activity against CXCL12 binding to CXCR4 receptor
Numbered stars: 1 amine (or outer) side, 2 acyl side, 3 side chain; on linkers, the order of the positions; unused ones are H or OH. Bridge positions count the residues as written; N and C are the ends. Square brackets hold non-standard residues; d marks the D form. Peptide text beside a SMILES is read from it. * marks the point of attachment. 2Nal = N[C@@H](Cc1ccc2ccccc2c1)C(=O)O; X1 = N=C(N)NCCC[C@H](NC(=N)N)C(=O)*; Glutaryl = O=C(CCCC(=O)[*:2])[*:1]; dCit = NC(=O)NCCC[C@@H](N)C(=O)O; Cit = NC(=O)NCCC[C@H](N)C(=O)O; Suc = O=C(CCC(=O)[*:2])[*:1]; Ahx = NCCCCCC(=O)O
Kindly supply the reported IC50 values for the records listed here.
Please state the figure in nM; there is no need to write the unit.

Task item: For N=C(N)NCCC[C@H](NC(=O)[C@@H]1CSSC[C@H](NC(=O)[C@H](Cc2ccc3ccccc3c2)NC(=O)[C@H](CCCNC(=N)N)NC(=O)CCCC(=O)O)C(=O)N[C@@H](Cc2ccc(O)cc2)C(=O)N[C@@H](CCCNC(N)=O)C(=O)N[C@@H](CCCCN)C(=O)N[C@H](CCC(=O)O)C(=O)N2CCC[C@H]2C(=O)N[C@@H](Cc2ccc(O)cc2)C(=O)N[C@@H](CCCNC(=N)N)C(=O)N[C@@H](CCCNC(N)=O)C(=O)N1)C(N)=O [TF11] (Glutaryl-R[2Nal]CY[Cit]K[dE]PYR[Cit]CR-NH2; disulfide 3-12) , what is its reported IC50?
Reply: 630

Task item: Which IC50 is reported for this compound? N=C(N)NCCC[C@H](NC(=O)[C@@H]1CSSC[C@H](NC(=O)[C@H](Cc2ccc3ccccc3c2)NC(=O)[C@H](CCCNC(=N)N)NC(=O)[C@H](CCCNC(=N)N)NC(=O)CCCCCN)C(=O)N[C@@H](Cc2ccc(O)cc2)C(=O)N[C@@H](CCCNC(N)=O)C(=O)N[C@@H](CCCCN)C(=O)N[C@H](CCCNC(N)=O)C(=O)N2CCC[C@H]2C(=O)N[C@@H](Cc2ccc(O)cc2)C(=O)N[C@@H](CCCNC(=N)N)C(=O)N[C@@H](CCCNC(N)=O)C(=O)N1)C(N)=O [TF19] (H-[Ahx]RR[2Nal]CY[Cit]K[dCit]PYR[Cit]CR-NH2; disulfide 5-14)
Reply: 4.5

Task item: For the compound N=C(N)NCCC[C@H](NC(=O)[C@@H]1CSSC[C@H](NC(=O)[C@H](Cc2ccc3ccccc3c2)NC(=O)[C@H](CCCNC(=N)N)NC(=O)[C@H](CCCNC(=N)N)NC(=N)N)C(=O)N[C@@H](Cc2ccc(O)cc2)C(=O)N[C@@H](CCCNC(N)=O)C(=O)N[C@@H](CCCCN)C(=O)N[C@H](CCC(=O)O)C(=O)N2CCC[C@H]2C(=O)N[C@@H](Cc2ccc(O)cc2)C(=O)N[C@@H](CCCNC(=N)N)C(=O)N[C@@H](CCCNC(N)=O)C(=O)N1)C(N)=O [TF2] (X1-R[2Nal]CY[Cit]K[dE]PYR[Cit]CR-NH2; disulfide 3-12) , what IC50 is on record?
Reply: 3.3

Task item: Returns the measured IC50 for the input compound. Input: N=C(N)NCCC[C@H](NC(=O)[C@@H]1CSSC[C@H](NC(=O)[C@H](Cc2ccc3ccccc3c2)NC(=O)[C@H](CCCNC(=N)N)NC(=O)CCC(=O)O)C(=O)N[C@@H](Cc2ccc(O)cc2)C(=O)N[C@@H](CCCNC(N)=O)C(=O)N[C@@H](CCCCN)C(=O)N[C@H](CCC(=O)O)C(=O)N2CCC[C@H]2C(=O)N[C@@H](Cc2ccc(O)cc2)C(=O)N[C@@H](CCCNC(=N)N)C(=O)N[C@@H](CCCNC(N)=O)C(=O)N1)C(N)=O [TF10] (Suc-R[2Nal]CY[Cit]K[dE]PYR[Cit]CR-NH2; disulfide 3-12)
Reply: 48

Task item: Any idea what IC50 was measured for N=C(N)NCCC[C@H](NC(=O)[C@@H]1CSSC[C@H](NC(=O)[C@H](Cc2ccc3ccccc3c2)NC(=O)[C@H](CCCNC(=N)N)NC(=O)[C@@H](N)CCCNC(=N)N)C(=O)N[C@@H](Cc2ccc(O)cc2)C(=O)N[C@@H](CCCNC(N)=O)C(=O)N[C@@H](CCCCN)C(=O)N[C@H](CCC(=O)O)C(=O)N2CCC[C@H]2C(=O)N[C@@H](Cc2ccc(O)cc2)C(=O)N[C@@H](CCCNC(=N)N)C(=O)N[C@@H](CCCNC(N)=O)C(=O)N1)C(N)=O [TE14011] (H-RR[2Nal]CY[Cit]K[dE]PYR[Cit]CR-NH2; disulfide 4-13) ?
Reply: 2.9
